Taken from patent US9776979B2.

Below, each of the compounds is paired with its reported IC50 value.
target: EBI2 (Homo sapiens, UniProt P32249); assay: Cell-based luminescent assay (EBI2 modulation); conditions: cell-based luminescence; 7a,25-OHC final assay concentration 80 nM; 60 minutes incubation; read-out: IC50
Sequence (P32249 whole entry): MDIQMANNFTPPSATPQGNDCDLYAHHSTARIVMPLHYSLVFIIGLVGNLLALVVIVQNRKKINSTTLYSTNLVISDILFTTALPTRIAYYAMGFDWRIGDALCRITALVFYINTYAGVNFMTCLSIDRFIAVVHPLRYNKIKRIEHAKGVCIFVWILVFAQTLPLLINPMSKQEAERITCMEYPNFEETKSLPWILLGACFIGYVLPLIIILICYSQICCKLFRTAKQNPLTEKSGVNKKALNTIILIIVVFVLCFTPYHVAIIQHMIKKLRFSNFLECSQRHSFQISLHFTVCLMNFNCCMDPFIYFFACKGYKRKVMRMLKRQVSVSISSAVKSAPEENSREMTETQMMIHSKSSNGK

Cc1ccc2[nH]c(C(=O)NC3CCN(C(c4ccccc4)c4ccccc4)CC3)cc2c1 ... 0.5 to 5 µM
O=C(C=Cc1ccc2c(c1)OCO2)N1CCN(C(=O)c2ccc(Br)cc2)CC1 ... < 0.1 µM
O=C(c1cc2ccccc2s1)N1CCN(C(c2ccccc2)c2ccccc2)CC1 ... < 0.1 µM
CCOc1ccc(/C=C/C(=O)N2CCN(S(=O)(=O)c3ccc(Br)cc3)CC2)cc1 ... < 0.1 µM
O=C(C#Cc1cccc(Cl)c1)N1CCN(C(=O)c2ccc(F)cc2)CC1 ... < 0.1 µM

Lab note: measured IC50 of O=C(C#Cc1ccc(C(F)(F)F)cc1)N1CCN(C(=O)c2ccc(Cl)cc2)CC1 was < 0.1 µM

Lab note: measured IC50 of O=C(c1cc2ccccn2n1)N1CCN(C(c2ccccc2)c2ccccc2)CC1 was 0.1 to 0.5 µM

Lab note: measured IC50 of O=C(c1cccc(B(O)O)c1)N1CCN(C(=O)c2cc3cc(Cl)ccc3[nH]2)CC1 was 0.1 to 0.5 µM

Lab note: measured IC50 of O=C(c1cc2cc(Cl)ccc2[nH]1)N1CCC(Oc2ccc(F)cc2)CC1 was < 0.1 µM

Lab note: measured IC50 of O=C(/C=C/c1ccccc1)N1CCN(Cc2ccc([N+](=O)[O-])cc2)CC1 was < 0.1 µM

Lab note: measured IC50 of O=C(/C=C/c1ccc(Br)cc1F)N1CCN(S(=O)(=O)c2ccc(Br)cc2)CC1 was < 0.1 µM

Lab note: measured IC50 of O=C(C#Cc1ccc(F)cc1)N1CCN(C(=O)c2ccc(Cl)cc2)CC1 was < 0.1 µM

Lab note: measured IC50 of O=C(C=Cc1ccc2c(c1)OCO2)N1CCN(Cc2ccc(Br)cc2)CC1 was 0.1 to 0.5 µM

Lab note: measured IC50 of Cc1ccc(NC2CCN(C(=O)c3cc4cc(Cl)ccc4[nH]3)CC2)cc1C was < 0.1 µM

Lab note: measured IC50 of O=C(C#Cc1ccc(C(F)(F)F)cc1)N1CCN(Cc2ccc(F)cc2)CC1 was < 0.1 µM

Lab note: measured IC50 of O=C(/C=C/c1ccc(Br)cc1)N1CCN(C(=O)c2ccc(C(F)(F)F)cc2)CC1 was < 0.1 µM

Lab note: measured IC50 of O=C(c1cc2cc(Cl)ccc2[nH]1)N1CCN(c2ccccn2)CC1 was 0.5 to 5 µM

---

target: EBI2 (Homo sapiens); experiment: Cell-based luminescent assay (EBI2 modulation); conditions: cell-based luminescence; 7a,25-OHC final assay concentration 80 nM; 60 minutes incubation; read-out: IC50
property: IC50

O=C(C#Cc1ccc(Cl)cc1)N1CCN(C(=O)c2ccc(F)cc2)CC1 ... < 100 nM
O=C(c1cc2ccccc2o1)N1CCN(C(c2ccccc2)c2ccccc2)CC1 ... < 100 nM

Kindly note: EBI2 (Homo sapiens), O=C(C#Cc1cccc(Cl)c1)N1CCN(C(=O)c2ccc(C(F)(F)F)cc2)CC1 , IC50 value reported: < 100 nM

Kindly note: EBI2 (Homo sapiens), O=C(c1cc2cc(Cl)ccc2[nH]1)N1CCN(Cc2ccc(F)cc2F)CC1 , IC50 value reported: 100 to 500 nM

Kindly note: EBI2 (Homo sapiens), O=C(C#Cc1ccc(F)cc1)N1CCN(C(=O)c2ccc(F)cc2)CC1 , IC50 value reported: < 100 nM

Kindly note: EBI2 (Homo sapiens), O=C(c1cccc(Cl)c1)N1CCN(C(=O)c2cc3cc(C(F)(F)F)ccc3[nH]2)CC1 , IC50 value reported: < 100 nM

---

target: EBI2 (Homo sapiens); assay: Cell-based luminescent assay (EBI2 modulation); conditions: cell-based luminescence; 7a,25-OHC final assay concentration 80 nM; 60 minutes incubation; read-out: IC50
property: IC50

O=C(/C=C/c1ccccc1)N1CCN(Cc2cccc(Cl)c2)CC1 [Compound C365] ... < 100 nM
Cc1ccccc1/C=C/C(=O)N1CCN(S(=O)(=O)c2ccc(C(C)(C)C)cc2)CC1 [Compound C480] ... 100 to 500 nM
O=C(c1ccc(I)cc1)N1CCN(C(=O)c2cc3cc(Cl)ccc3[nH]2)CC1 [Compound C115] ... < 100 nM

For the next question, use this molecule.
Lab note: measured IC50 of O=C(C#Cc1ccc(Br)cc1)N1CCN(C(=O)c2ccc(-c3nnn[nH]3)cc2)CC1 [Compound C149] was < 100 nM

---

Molecular target: UniProt P32249
Assay: Cell-based luminescent assay (EBI2 modulation)
Conditions: cell-based luminescence; 7a,25-OHC final assay concentration 80 nM; 60 minutes incubation; read-out: IC50
Experimental: Cell-Based Luminescent Assay To assess EBI2 modulation, the compounds described herein were assayed in the following cell-based luminescent assay: 1) Plated 600 cells/well in 4 uL of assay media into columns 1-48 of a 1536-well assay plate, using a liquid dispenser. 2) Centrifuged plates at 1000 rpm for 1 minute and covered with lids. […] 10) Read plates using the Viewlux, Envision or other suitable plate reader using a luminescence detection. […]
pIC50: −log10 of the molar value.
property: pIC50

Lab note: measured pIC50 of O=C(c1cc2ncccc2[nH]1)N1CCN(C(c2ccccc2)c2ccccc2)CC1 was 5.30 to 6.30

Lab note: measured pIC50 of O=C(c1cnc2ccccc2n1)N1CCN(C(c2ccccc2)c2ccccc2)CC1 was 6.30 to 7.00

Lab note: measured pIC50 of O=C(c1cc2ccccc2cn1)N1CCN(C(c2ccccc2)c2ccccc2)CC1 was 6.30 to 7.00

Lab note: measured pIC50 of Cc1ccc(/C=C/C(=O)N2CCN(C(c3ccccc3)c3ccccc3)CC2)cc1 was 6.30 to 7.00

Lab note: measured pIC50 of O=C(c1cc2cccc([N+](=O)[O-])c2[nH]1)N1CCN(C(c2ccccc2)c2ccccc2)CC1 was 5.30 to 6.30

Lab note: measured pIC50 of O=C(C#Cc1ccc(F)cc1F)N1CCN(C(=O)c2ccc(Cl)cc2)CC1 was > 7.00

Lab note: measured pIC50 of O=C(c1ccc2sccc2c1)N1CCN(C(c2ccccc2)c2ccccc2)CC1 was > 7.00

Lab note: measured pIC50 of O=C(c1cc2cc(Cl)ccc2[nH]1)N1CCN(c2ccc(F)cc2F)CC1 was 6.30 to 7.00

---

molecular target: EBI2 (Homo sapiens, UniProt P32249); assay: Cell-based luminescent assay (EBI2 modulation); details: cell-based luminescence; 7a,25-OHC final assay concentration 80 nM; 60 minutes incubation; read-out: IC50
Below, each of the compounds is paired with its reported IC50 value.

O=C(/C=C/c1ccc(Br)cc1)N1CCN(C(=O)C2CCCC2)CC1 [Compound C82] ... < 100 nM

For the next question, use this compound.
Lab note: measured IC50 of O=C(c1ccc2nc[nH]c2c1)N1CCN(C(c2ccccc2)c2ccccc2)CC1 [Compound C296] was 100 to 500 nM

---

target: EBI2 (Homo sapiens); assay: Cell-based luminescent assay (EBI2 modulation); settings: cell-based luminescence; 7a,25-OHC final assay concentration 80 nM; 60 minutes incubation; read-out: IC50
pIC50: −log10 of the molar value.
property: pIC50

Solved entries:
CC(C)CN1CCN(C(=O)/C=C/c2ccccc2)CC1 [Compound C392] ... > 7.00
O=C(c1cnc2ccccc2c1)N1CCN(Cc2ccc(Cl)cc2)CC1 [Compound C464] ... 6.30 to 7.00
O=C(/C=C/c1ccc(F)cc1)N1CCN(S(=O)(=O)c2ccc3ccccc3c2)CC1 [Compound C221] ... > 7.00

Lab note: measured pIC50 of CC(C)(C)c1ccc(CN2CCN(C(=O)/C=C/c3ccc(Br)cc3)CC2)cc1 [Compound C144] was > 7.00

Lab note: measured pIC50 of COc1ccc(/C=C/C(=O)N2CCN(S(=O)(=O)c3ccc(Br)cc3)CC2)cc1 [Compound C146] was > 7.00

Lab note: measured pIC50 of Cc1cc(CN2CCN(C(=O)/C=C/c3ccc(Br)cc3)CC2)ccc1F [Compound C32] was > 7.00

Lab note: measured pIC50 of O=C(C#Cc1ccccc1)N1CCN(C(=O)c2ccc(Br)cc2)CC1 [Compound C65] was > 7.00

---

Below, each of the compounds is paired with its reported IC50 value.
biological target: EBI2 (Homo sapiens); assay: Cell-based luminescent assay (EBI2 modulation); conditions: cell-based luminescence; 7a,25-OHC final assay concentration 80 nM; 60 minutes incubation; read-out: IC50

Solved entries:
O=C(c1cc2cc(Cl)ccc2[nH]1)N1CCN(C(=O)c2cccnc2Cl)CC1 [Compound C285] ... 100 to 500 nM
O=C(c1csc2ccccc12)N1CCN(C(c2ccccc2)c2ccccc2)CC1 [Compound C290] ... 100 to 500 nM
O=C(c1cc2cc(Cl)ccc2[nH]1)N1CCN(Cc2cccc(-c3ccccc3)c2)CC1 [Compound C403] ... < 100 nM

Kindly note: EBI2 (Homo sapiens), O=C(/C=C/c1ccccc1)N1CCN(Cc2ccccc2Cl)CC1 [Compound C374] , IC50 value reported: < 100 nM

Kindly note: EBI2 (Homo sapiens), O=C(c1cc2cc(Cl)ccc2[nH]1)N1CCC(N2CCOCC2)CC1 [Compound C199] , IC50 value reported: 500 to 5000 nM
